Hello, the source for this data is patent US4980377A, in case you need it.

# method: pH of solutions in distilled water
# Assay type: physicochemical
# test-parameters: 0.1 g/liter in distilled water
Where a name gives a salt, the structure may show the parent alone.
For each of the compounds below, state its pH.
One number for each entry.

Here is how some compounds turned out for pH.
CC(C(=O)c1ccc(N)cc1)N1CCN(C)CC1 (stereo not shown) [CRL 41 243] ... 5.0
CCNC(C)C(=O)c1ccc(N)cc1 (stereo not shown) [CRL 41 225] ... 5.0
CC(C(=O)c1ccc(N)cc1)N1CCSCC1 (stereo not shown) [CRL 41 248] ... 4.5
CC(C(=O)c1ccc(N)cc1)N1CCCC1 (stereo not shown) [CRL 41 222, dihydrochloride] ... 5
CC(NC1CC1)C(=O)c1ccc(N)cc1 (stereo not shown) [CRL 41 246] ... 5.0

Hi! Can you tell me pH for each of these compounds?
1. CC(C(=O)c1ccc(N)cc1)N1CCOCC1 (stereo not shown) [CRL 41 237, dihydrochloride]
2. CC(C(=O)c1ccc(N)cc1)N(C)C (stereo not shown) [CRL 41 233]

Ans.
1. 5.0
2. 5.0

----------
# System: CNS
# method: Neuropsychopharmacological profile as a whole
# Format: in vivo, mice and rats
# test-parameters: conclusion of the tests
Where a name gives a salt, the structure may show the parent alone.
property-name: Antidepressant effects (overall)

CC(NC1CC1)C(=O)c1ccc(N)cc1 (centres unmarked) ... antidepressant effects
CNC(C)C(=O)c1ccc(N)cc1 (centres unmarked) [CRL 41 218, dihydrochloride] ... antidepressant effects

----------
# Tested on: gravid White New Zealand female rabbits
# method: Teratogenicity in gravid White New Zealand rabbits
# Assay type: in vivo, rabbit
# test-parameters: 50 mg/kg daily, day 5 to day 18 of gestation
Where a name gives a salt, the structure may show the parent alone.
property-name: Total foetuses (live)
Answers are plain numbers.

Here is how some molecules turned out for Total foetuses (live).
CC(NC(C)(C)C)C(=O)c1ccc(N)cc1 (stereo not drawn) [CRL 41 178] ... 92
CC(C(=O)c1ccc(N)cc1)N1CCN(C)CC1 (stereo not drawn) [CRL 41 243] ... 87
CC(C)NC(C)C(=O)c1ccc(N)cc1 (stereo not drawn) [CRL 41 153, dihydrochloride] ... 93
CNC(C)C(=O)c1ccc(N)cc1 (stereo not drawn) [CRL 41 218, dihydrochloride] ... 79
Nc1ccc(C(=O)CCN2CCOCC2)cc1 [A 9, reference compound] ... 82

Turning to the following molecule.
Qu. Return reported Total foetuses (live); argument: CC(C(=O)c1ccc(N)cc1)N1CCOCC1 (stereo not drawn) [CRL 41 237, dihydrochloride]
Ans. 88

----------
# Test system: gravid White New Zealand female rabbits
# method: Teratogenicity in gravid White New Zealand rabbits
# Assay type: in vivo, rabbit
# test-parameters: 5 mg/kg daily, day 5 to day 18 of gestation
Structures can show the parent of a compound that is named as a salt.
For each of the compounds below, state its Total foetuses (live).
Answers are plain numbers.

Here is how some compounds turned out for Total foetuses (live).
Nc1ccc(C(=O)CCCN2CCCC2)cc1 [A 6, reference compound] ... 89
CC(C)NC(C)C(=O)c1ccc(N)c(Cl)c1 (centres unmarked) [CRL 41 221, hydrochloride] ... 91
CCNC(C)C(=O)c1ccc(N)cc1 (centres unmarked) ... 91
Nc1ccc(C(=O)CN2CCCCC2)cc1 [A 18, reference compound] ... 80
CC(C)NC(C)C(=O)c1ccc(N)cc1 (centres unmarked) [CRL 41 153, dihydrochloride] ... 90
CC(C(=O)c1ccc(N)cc1)N1CCOCC1 (centres unmarked) [CRL 41 237, dihydrochloride] ... 91
Nc1ccc(C(=O)CN2CCOCC2)cc1 [A 16, 1-(4-aminophenyl)-2-morpholinylethanone, reference compound] ... 81
Nc1ccc(C(=O)CCCN2CCCCC2)cc1 [A 5, reference compound] ... 81
CC(C)NC(C)C(=O)c1cc(Cl)c(N)c(Cl)c1 (centres unmarked) [CRL 41 194, hydrochloride] ... 95
Nc1ccc(C(=O)CCN2CCOCC2)cc1 [A 9, reference compound] ... 86

Hi! Can you tell me Total foetuses (live) for each of these compounds?
1. Nc1ccc(C(=O)CCNC2CC2)cc1 [A 12, reference compound]
2. CC(NC1CC1)C(=O)c1ccc(N)cc1 (centres unmarked)

Ans.
75
89
